Test system: Liver microsomes
Procedure Details: Intrinsic clearance in rat liver microsomes assessed per mg of protein
Assay type: ADME, Microsome
Values of clearance greater than or equal to 70 µL/min/mg map to 1; values below map to 0.

In: Is clearance for COc1ccc(-n2ncc3c(NC(C4CC4)C4CC4)nc(C)nc32)c(C)c1 at or above 70 µL/min/mg?
Out: 0

---

Could you please report measured clearance for the items listed next?
System: Liver microsomes
Procedure Details: Intrinsic clearance in human liver microsomes assessed per mg of protein
Format: ADME, Microsome

Could you report clearance for every entry in the following list?
1. CC[C@H](CO)Nc1nc(C)nc2c1c(C)nn2-c1ccc(OC)cc1C
2. CCCCN(CC)c1nc(C)nc2c1c(C)nn2-c1c(C)cc(C)cc1C

Out:
1: < 7 µL/min/mg; 2: > 320 µL/min/mg

Each compound below has a recorded value; state its clearance.
1. CC[C@@H](CO)Nc1nc(C)nc2c1c(C)nn2-c1ccc(OC)cc1C
2. COc1ccc(-n2nc(C)c3c(NC(C4CC4)C4CC4)nc(C)nc32)c(C)c1

Out:
1: < 7 µL/min/mg; 2: < 12 µL/min/mg
